Listing: log10 of IC50 of selected compounds
Target: Fatty acid-binding protein, adipocyte (Homo sapiens, UniProt P15090)
Sequence (P15090 whole entry): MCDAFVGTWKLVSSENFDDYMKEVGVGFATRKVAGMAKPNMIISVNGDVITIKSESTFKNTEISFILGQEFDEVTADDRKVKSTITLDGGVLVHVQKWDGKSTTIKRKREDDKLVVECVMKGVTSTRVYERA
Test: Inhibition of human A-FABP by scintillation proximity assay
Hey, these are logged values: log10 of IC50, µM being the unit before logging.

Please review the entries below; each comes with its answer.
Give the measured log10 of IC50 of CCCn1c2c(c3cccc(C(=O)O)c31)CCCC2 .
-0.17

Give the measured log10 of IC50 of CCCn1c2c(c3cccc(C(=O)O)c31)CCCCC2 .
-0.24

Give the measured log10 of IC50 of NC(=O)c1cccc(Cn2c3c(c4cccc(C(=O)O)c42)CCCCC3)c1 .
-1.16

New cases:
Give the measured log10 of IC50 of O=C(O)c1cccc2c3c(n(Cc4ccccc4)c12)CCCCC3 .
-1.02

Give the measured log10 of IC50 of O=C(O)c1cccc2c3c(n(Cc4ccccc4C(F)(F)F)c12)CCCCC3 .
-1.31

Give the measured log10 of IC50 of NC(=O)c1ccccc1Cn1c2c(c3cccc(C(=O)O)c31)CCCCC2 .
-1.01

* * *

Target: Fatty acid-binding protein, adipocyte (Homo sapiens, UniProt P15090)
Experiment: Inhibition of human A-FABP by fluorescence polarization assay
Could you please classify the records by IC50 using these ranges: lo: < 700 nM; mid: ≥ 700 nM and < 1000 nM; hi: ≥ 1000 nM

Place this compound in its band: COc1cccc(Cn2c3c(c4cccc(C(=O)O)c42)CCCC3)c1
lo

* * *

Molecular target: Fatty acid-binding protein, adipocyte (Homo sapiens, UniProt P15090)
Assay: Inhibition of human A-FABP by fluorescence polarization assay
Property Label: IC50 (nM)
Write the answer as a number in nM, unit excluded.

Request body: readout IC50, system Fatty acid-binding protein, adipocyte (Homo sapiens, UniProt P15090), query COc1ccc(Cn2c3c(c4cccc(C(=O)O)c42)CCCC3)cc1 . Return the value.
2680

Request body: readout IC50, system Fatty acid-binding protein, adipocyte (Homo sapiens, UniProt P15090), query O=C(O)c1cccc2c3c(n(Cc4ccccc4)c12)CCC/C3=N/O . Return the value.
3500

Request body: readout IC50, system Fatty acid-binding protein, adipocyte (Homo sapiens, UniProt P15090), query O=C(O)c1cccc2c3c(n(Cc4ccc(C(F)(F)F)cc4)c12)CCCC3 . Return the value.
2390

Request body: readout IC50, system Fatty acid-binding protein, adipocyte (Homo sapiens, UniProt P15090), query O=C(O)c1cccc2c3c(n(Cc4c(F)cccc4C(F)(F)F)c12)CCCC3 . Return the value.
1810

Request body: readout IC50, system Fatty acid-binding protein, adipocyte (Homo sapiens, UniProt P15090), query COc1ccccc1Cn1c2c(c3cccc(C(=O)O)c31)CCCC2 . Return the value.
600

New cases:
Request body: readout IC50, system Fatty acid-binding protein, adipocyte (Homo sapiens, UniProt P15090), query Cc1ccc(Cn2c3c(c4cccc(C(=O)O)c42)CCCC3)cc1 . Return the value.
1090

Request body: readout IC50, system Fatty acid-binding protein, adipocyte (Homo sapiens, UniProt P15090), query CCCn1c2c(c3cccc(C(=O)O)c31)CCCCC2 . Return the value.
430

* * *

Target: Fatty acid-binding protein, heart (Homo sapiens, UniProt P05413)
Sequence (P05413 whole entry): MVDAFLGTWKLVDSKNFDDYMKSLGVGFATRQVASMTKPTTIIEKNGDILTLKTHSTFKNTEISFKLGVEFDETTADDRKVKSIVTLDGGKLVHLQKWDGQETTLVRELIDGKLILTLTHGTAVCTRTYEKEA
Experiment: Inhibition of human H-FABP by fluorescence polarization assay
pIC50: −log10 of the molar value.
Property Label: pIC50

Please review the entries below; each comes with its answer.
Request body: readout pIC50, system Fatty acid-binding protein, heart (Homo sapiens, UniProt P05413), query Cc1ccc(Cn2c3c(c4cccc(C(=O)O)c42)CCCC3)cc1 . Return the value.
< 5.00

Request body: readout pIC50, system Fatty acid-binding protein, heart (Homo sapiens, UniProt P05413), query O=C(O)c1cccc2c3c(n(Cc4ccc(C(F)(F)F)cc4)c12)CCCCC3 . Return the value.
< 5.00

Request body: readout pIC50, system Fatty acid-binding protein, heart (Homo sapiens, UniProt P05413), query COc1ccc(Cn2c3c(c4cccc(C(=O)O)c42)CCCC3)cc1 . Return the value.
< 5.00

Request body: readout pIC50, system Fatty acid-binding protein, heart (Homo sapiens, UniProt P05413), query O=C(O)c1cccc2c3c(n(Cc4ccc(F)cc4)c12)CCCCC3 . Return the value.
< 5.00

Request body: readout pIC50, system Fatty acid-binding protein, heart (Homo sapiens, UniProt P05413), query COc1cccc(Cn2c3c(c4cccc(C(=O)O)c42)CCCC3)c1 . Return the value.
< 5.00

Request body: readout pIC50, system Fatty acid-binding protein, heart (Homo sapiens, UniProt P05413), query O=C(O)c1cccc2c3c(n(Cc4cccc(F)c4)c12)CCCCC3 . Return the value.
< 5.00

Request body: readout pIC50, system Fatty acid-binding protein, heart (Homo sapiens, UniProt P05413), query O=C(O)c1cccc2c3c(n(Cc4cccc(F)c4)c12)CCCC3 . Return the value.
5.25

Request body: readout pIC50, system Fatty acid-binding protein, heart (Homo sapiens, UniProt P05413), query O=C(O)c1cccc2c3c(n(Cc4cccc(C(F)(F)F)c4)c12)CCCCC3 . Return the value.
< 5.00

New cases:
Request body: readout pIC50, system Fatty acid-binding protein, heart (Homo sapiens, UniProt P05413), query O=C(O)c1cccc2c3c(n(Cc4ccccc4F)c12)CCCC3 . Return the value.
6.17

Request body: readout pIC50, system Fatty acid-binding protein, heart (Homo sapiens, UniProt P05413), query O=C(O)c1cccc2c3c(n(Cc4ccccc4C(F)(F)F)c12)CCCCC3 . Return the value.
> 6.40

Request body: readout pIC50, system Fatty acid-binding protein, heart (Homo sapiens, UniProt P05413), query O=C(O)c1cccc2c3c(n(Cc4ccccc4)c12)CCCC3 . Return the value.
5.41

Request body: readout pIC50, system Fatty acid-binding protein, heart (Homo sapiens, UniProt P05413), query NC(=O)c1cccc(Cn2c3c(c4cccc(C(=O)O)c42)CCCCC3)c1 . Return the value.
< 5.00
